assay: PK and tissue distribution after single oral administration in Ba/F3-EPOR-JAK2^V617F tumor-bearing mice; type: in vivo; details: BALB/c nude, mouse; spleen; single oral 30 mg/kg
reported endpoint: half-life

Challenge: Any idea what its half-life is? The compound is Cc1cnc(Nc2ccc(N3CCC(N(C)CCO)CC3)c(F)c2)nc1-c1cnn(C(C)C)c1
Response given: 163 min

----------
test: PK and tissue distribution after repeated oral administration in Ba/F3-EPOR-JAK2^V617F tumor-bearing mice; type: in vivo; settings: BALB/c nude, mouse, liver, oral, 30 mg/kg; repeated; 12 h; read-out: FM concentration, Liver
reported endpoint: concentration at 12 h (ng/g)
# value in ng/g; strip the unit string

Challenge: Any idea what its concentration at 12 h is? The compound is Cc1cnc(Nc2ccc(N3CCC(N(C)CCO)CC3)c(F)c2)nc1-c1cnn(C(C)C)c1
Response given: 151
